Data origin, for the record: the supplement of paper PMC10567573

B1: SMTNL2 (parent)
chain: QKNFELAFTMAENLANCERLIEVE

Variants of: B1
Assay: protein stability index of a GFP-peptide fusion (GPS, HEK-293T) (PSI 1-6); higher = more stable;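 note: lentivirally expressed fusions sorted by FACS into six bins by GFP to DsRed ratio, PSI derived from sequencing read proportions per bin multiplied by bin number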
Details: c terminus: a fixed tail appended
Use 2 as the dividing line for protein stability index, with the line itself on the Y side and lower values as N.

[[record]]
mutant_designation = "E24N"
category = "Y"

[[record]]
mutant_designation = "A7V"
category = "N"

[[record]]
mutant_designation = "M10P"
category = "Y"

[[record]]
mutant_designation = "F8D"
category = "Y"

[[record]]
mutant_designation = "A11C"
category = "Y"

[[record]]
mutant_designation = "I21A"
category = "Y"

[[record]]
mutant_designation = "M10H"
category = "Y"

[[record]]
mutant_designation = "F4K"
category = "Y"

[[record]]
mutant_designation = "I21Q"
category = "Y"

[[record]]
mutant_designation = "E18D"
category = "Y"

[[record]]
mutant_designation = "L14K"
category = "Y"

[[record]]
mutant_designation = "F4I"
category = "Y"

[[record]]
mutant_designation = "E24G"
category = "Y"

[[record]]
mutant_designation = "E22G"
category = "N"

[[record]]
mutant_designation = "M10L"
category = "N"

[[record]]
mutant_designation = "K2I"
category = "Y"

[[record]]
mutant_designation = "E5L"
category = "N"

[[record]]
mutant_designation = "A7H"
category = "Y"

[[record]]
mutant_designation = "T9W"
category = "Y"

[[record]]
mutant_designation = "M10Q"
category = "Y"

[[record]]
mutant_designation = "F8S"
category = "N"

[[record]]
mutant_designation = "A15G"
category = "Y"

[[record]]
mutant_designation = "M10A"
category = "Y"

[[record]]
mutant_designation = "V23P"
category = "Y"

[[record]]
mutant_designation = "N16R"
category = "N"

[[record]]
mutant_designation = "R19W"
category = "Y"

[[record]]
mutant_designation = "L6H"
category = "Y"

[[record]]
mutant_designation = "A15P"
category = "Y"

[[record]]
mutant_designation = "Q1P"
category = "Y"

[[record]]
mutant_designation = "V23E"
category = "Y"

[[record]]
mutant_designation = "A7E"
category = "N"

[[record]]
mutant_designation = "F8T"
category = "Y"

[[record]]
mutant_designation = "A15R"
category = "N"

[[record]]
mutant_designation = "A15C"
category = "Y"

[[record]]
mutant_designation = "M10S"
category = "Y"

[[record]]
mutant_designation = "A15V"
category = "Y"

[[record]]
mutant_designation = "V23T"
category = "Y"

[[record]]
mutant_designation = "E24R"
category = "Y"

[[record]]
mutant_designation = "V23K"
category = "N"

[[record]]
mutant_designation = "E24Q"
category = "N"

[[record]]
mutant_designation = "I21V"
category = "Y"

[[record]]
mutant_designation = "E5S"
category = "N"

[[record]]
mutant_designation = "N16E"
category = "Y"

[[record]]
mutant_designation = "L20P"
category = "Y"

[[record]]
mutant_designation = "C17Q"
category = "Y"

[[record]]
mutant_designation = "L20D"
category = "Y"

[[record]]
mutant_designation = "I21W"
category = "Y"

[[record]]
mutant_designation = "K2T"
category = "N"

[[record]]
mutant_designation = "V23F"
category = "Y"

[[record]]
mutant_designation = "N13E"
category = "Y"

[[record]]
mutant_designation = "N16P"
category = "Y"

[[record]]
mutant_designation = "E22T"
category = "Y"

[[record]]
mutant_designation = "K2M"
category = "N"

[[record]]
mutant_designation = "E24S"
category = "N"

[[record]]
mutant_designation = "E12R"
category = "N"

[[record]]
mutant_designation = "C17I"
category = "Y"

[[record]]
mutant_designation = "M10D"
category = "Y"

[[record]]
mutant_designation = "L20N"
category = "Y"

[[record]]
mutant_designation = "N13S"
category = "Y"

[[record]]
mutant_designation = "A7P"
category = "Y"

[[record]]
mutant_designation = "E24Y"
category = "Y"

[[record]]
mutant_designation = "E24I"
category = "N"

[[record]]
mutant_designation = "V23A"
category = "Y"

[[record]]
mutant_designation = "N16Y"
category = "Y"

[[record]]
mutant_designation = "I21K"
category = "Y"

[[record]]
mutant_designation = "M10C"
category = "Y"

[[record]]
mutant_designation = "Q1F"
category = "Y"

[[record]]
mutant_designation = "L20E"
category = "Y"

[[record]]
mutant_designation = "E22A"
category = "Y"

[[record]]
mutant_designation = "V23M"
category = "Y"

[[record]]
mutant_designation = "K2L"
category = "N"

[[record]]
mutant_designation = "V23H"
category = "Y"

[[record]]
mutant_designation = "L20A"
category = "Y"

[[record]]
mutant_designation = "T9D"
category = "Y"

[[record]]
mutant_designation = "K2C"
category = "N"

[[record]]
mutant_designation = "M10V"
category = "Y"

[[record]]
mutant_designation = "N13T"
category = "N"

[[record]]
mutant_designation = "E12T"
category = "N"

[[record]]
mutant_designation = "L14Y"
category = "Y"

[[record]]
mutant_designation = "N16M"
category = "N"

[[record]]
mutant_designation = "F4N"
category = "Y"

[[record]]
mutant_designation = "N16K"
category = "Y"

[[record]]
mutant_designation = "L6N"
category = "Y"

[[record]]
mutant_designation = "N13I"
category = "Y"

[[record]]
mutant_designation = "V23N"
category = "N"

[[record]]
mutant_designation = "F4G"
category = "Y"

